# Experiment: Antioxidant activity assessed as inhibition of H2O2-induced bovine serum albumin oxidation after 10 mins by spectrophotometry
# Type: functional
# Measurement parameters: in the assay text read “after 1 hr” for “after 10 mins”
Value type: IC50 (µM)

Here is how some molecules turned out for IC50.
Molecule	IC50 (µM)
C[C@@H]1O[C@@H](O[C@@H]2[C@@H](O)[C@H](OCCc3ccc(O)c(O)c3)O[C@H](CO)[C@H]2OC(=O)/C=C/c2ccc(O)c(O)c2)[C@H](O[C@@H]2OC[C@H](O)[C@@H](O)[C@H]2O)[C@H](O)[C@H]1O	44.8
COc1cc(/C=C/C(=O)OC[C@H]2O[C@@H](OCCc3ccc(O)c(O)c3)[C@H](O)[C@@H](O[C@@H]3O[C@@H](C)[C@H](O)[C@@H](O)[C@H]3O[C@@H]3OC[C@H](O)[C@@H](O)[C@H]3O)[C@@H]2O)ccc1O	18.1

1 = Cc1c(C)c2c(c(C)c1O)CCC(C)(C(=O)O)O2 (centres undefined) [TROLOX]
2 = COc1cc(/C=C/C(=O)O[C@H]2[C@H](O[C@@H]3O[C@@H](C)[C@H](O)[C@@H](O)[C@H]3O[C@@H]3OC[C@H](O)[C@@H](O)[C@H]3O)[C@@H](O)[C@H](OCCc3ccc(O)c(O)c3)O[C@@H]2CO)ccc1O
Which value of IC50 is numerically greater: that of 1 or that of 2 ? Response format: the label of the selected entry. 1
(1: 69.2 µM, 2: 32.8 µM)

---

# Tested on: Radical scavenging activity
# Experiment: Antioxidant activity assessed as DPPH radical scavenging activity after 30 mins by spectrophotometry
# Assay type: functional
Value type: IC50 (µM)

Here is how some molecules turned out for IC50.
Molecule	Value type	Observed
COc1cc(/C=C/C(=O)OC[C@H]2O[C@@H](OCCc3ccc(O)c(O)c3)[C@H](O)[C@@H](O[C@@H]3O[C@@H](C)[C@H](O)[C@@H](O)[C@H]3O[C@@H]3OC[C@H](O)[C@@H](O)[C@H]3O)[C@@H]2O)ccc1O	IC50	11
COc1cc(/C=C/C(=O)O[C@H]2[C@H](O[C@@H]3O[C@@H](C)[C@H](O)[C@@H](O)[C@H]3O[C@@H]3OC[C@H](O)[C@@H](O)[C@H]3O)[C@@H](O)[C@H](OCCc3ccc(O)c(O)c3)O[C@@H]2CO)ccc1O	IC50	14
C[C@@H]1O[C@@H](O[C@@H]2[C@@H](O)[C@H](OCCc3ccc(O)c(O)c3)O[C@H](CO)[C@H]2OC(=O)/C=C/c2ccc(O)c(O)c2)[C@H](O)[C@H](O)[C@H]1O [ACETOSIDE]	IC50	15.3
Cc1c(C)c2c(c(C)c1O)CCC(C)(C(=O)O)O2 (configuration not stated)	IC50	21

a = C[C@@H]1O[C@@H](O[C@@H]2[C@@H](O)[C@H](OCCc3ccc(O)c(O)c3)O[C@H](CO)[C@H]2OC(=O)/C=C/c2ccc(O)c(O)c2)[C@H](O[C@@H]2OC[C@H](O)[C@@H](O)[C@H]2O)[C@H](O)[C@H]1O
b = C[C@@H]1O[C@@H](O[C@@H]2[C@@H](O)[C@H](OCCc3ccc(O)c(O)c3)O[C@H](COC(=O)/C=C/c3ccc(O)c(O)c3)[C@H]2O)[C@H](O[C@@H]2OC[C@H](O)[C@@H](O)[C@H]2O)[C@H](O)[C@H]1O
Would you kindly point out which of a and b has the smaller IC50 figure? Response format: the label of the selected entry. a
(a: 16.5 µM, b: 38.3 µM)

---

# Experiment: Antioxidant activity assessed as trolox equivalent of inhibition of Fe3+ ion-induced 2-deoxyribose oxidation after 24 hrs by TBA method
# Assay type: functional
A collection of molecules and their measured Activity
Number, no unit, nothing else.

Molecule	Value type	Observed
CC(=O)O[C@]1(C)C[C@H](O)[C@H]2C=CO[C@H](O[C@@H]3O[C@H](CO)[C@@H](O)[C@H](O)[C@H]3O)[C@H]21	Activity	0.3
C[C@@H]1O[C@@H](O[C@@H]2[C@@H](O)[C@H](OCCc3ccc(O)c(O)c3)O[C@H](COC(=O)/C=C/c3ccc(O)c(O)c3)[C@H]2O)[C@H](O[C@@H]2OC[C@H](O)[C@@H](O)[C@H]2O)[C@H](O)[C@H]1O	Activity	0.7

Fill in the blank: the reported Activity of C[C@@H]1O[C@@H](O[C@@H]2[C@@H](O)[C@H](OCCc3ccc(O)c(O)c3)O[C@H](CO)[C@H]2OC(=O)/C=C/c2ccc(O)c(O)c2)[C@H](O[C@@H]2OC[C@H](O)[C@@H](O)[C@H]2O)[C@H](O)[C@H]1O is ____. 0.5

Try this molecule too: COc1ccc(/C=C/C(=O)OC[C@H]2O[C@@H](O[C@H]3OC=C[C@@]4(O)[C@@H]3[C@](C)(O)C[C@@H]4O)[C@H](O)[C@@H](O)[C@@H]2O)cc1OC 0.7

Try this molecule too: COc1cc(/C=C/C(=O)O[C@H]2[C@H](O[C@@H]3O[C@@H](C)[C@H](O)[C@@H](O)[C@H]3O[C@@H]3OC[C@H](O)[C@@H](O)[C@H]3O)[C@@H](O)[C@H](OCCc3ccc(O)c(O)c3)O[C@@H]2CO)ccc1O 0.6

---

# Experiment: Antioxidant activity assessed as inhibition of Fe3+ ion-induced 2-deoxyribose oxidation after 24 hrs by TBA method
# Assay type: functional
pIC50: −log10 of the molar value.
Value type: pIC50

Here is how some compounds turned out for pIC50.
Compound	pIC50
Cc1c(C)c2c(c(C)c1O)CCC(C)(C(=O)O)O2 (stereo not given) [TROLOX]	4.74
COc1ccc(/C=C/C(=O)OC[C@H]2O[C@@H](O[C@H]3OC=C[C@@]4(O)[C@@H]3[C@](C)(O)C[C@@H]4O)[C@H](O)[C@@H](O)[C@@H]2O)cc1	4.88
COc1cc(/C=C/C(=O)OC[C@H]2O[C@@H](OCCc3ccc(O)c(O)c3)[C@H](O)[C@@H](O[C@@H]3O[C@@H](C)[C@H](O)[C@@H](O)[C@H]3O[C@@H]3OC[C@H](O)[C@@H](O)[C@H]3O)[C@@H]2O)ccc1O	4.43

P = CC(=O)O[C@]1(C)C[C@H](O)[C@H]2C=CO[C@H](O[C@@H]3O[C@H](CO)[C@@H](O)[C@H](O)[C@H]3O)[C@H]21
Q = COc1ccc(/C=C/C(=O)OC[C@H]2O[C@@H](O[C@H]3OC=C[C@@]4(O)[C@@H]3[C@](C)(O)C[C@@H]4O)[C@H](O[C@@H]3O[C@H](CO)[C@@H](O)[C@H](O)[C@H]3O)[C@@H](O)[C@@H]2O)cc1
Would you kindly point out which of P and Q has the smaller pIC50 figure? Response format: the label of the selected entry. P
(P: 4.28, Q: 4.89)

---

# Experiment: Antioxidant activity assessed as inhibition of Fe3+ ion-induced 2-deoxyribose oxidation after 24 hrs by TBA method
# Assay type: functional
pIC50: −log10 of the molar value.
Value type: pIC50

Compound	Observed
C[C@@H]1O[C@@H](O[C@@H]2[C@@H](O)[C@H](OCCc3ccc(O)c(O)c3)O[C@H](CO)[C@H]2OC(=O)/C=C/c2ccc(O)c(O)c2)[C@H](O[C@@H]2OC[C@H](O)[C@@H](O)[C@H]2O)[C@H](O)[C@H]1O	4.46

I = CC(=O)O[C@]1(C)C[C@H](O)[C@@]2(O)C=CO[C@H](O[C@@H]3O[C@H](CO)[C@@H](O)[C@H](O)[C@H]3O)[C@H]21
II = C[C@@H]1O[C@@H](O[C@@H]2[C@@H](O)[C@H](OCCc3ccc(O)c(O)c3)O[C@H](CO)[C@H]2OC(=O)/C=C/c2ccc(O)c(O)c2)[C@H](O)[C@H](O)[C@H]1O [ACETOSIDE]
Which value of pIC50 is numerically greater: that of I or that of II ? Response format: the label of the selected entry. II

---

# Experiment: Antioxidant activity assessed as inhibition of H2O2-induced bovine serum albumin oxidation after 10 mins by spectrophotometry
# Assay type: functional
# Measurement parameters: in the assay text read “after 1 hr” for “after 10 mins”
Value type: IC50 (µM)

Compound	Value type	Observed
C[C@@H]1O[C@@H](O[C@@H]2[C@@H](O)[C@H](OCCc3ccc(O)c(O)c3)O[C@H](COC(=O)/C=C/c3ccc(O)c(O)c3)[C@H]2O)[C@H](O[C@@H]2OC[C@H](O)[C@@H](O)[C@H]2O)[C@H](O)[C@H]1O	IC50	38
CC(=O)O[C@]1(C)C[C@H](O)[C@H]2C=CO[C@H](O[C@@H]3O[C@H](CO)[C@@H](O)[C@H](O)[C@H]3O)[C@H]21	IC50	38.9
CC(=O)O[C@]1(C)C[C@H](O)[C@@]2(O)C=CO[C@H](O[C@@H]3O[C@H](CO)[C@@H](O)[C@H](O)[C@H]3O)[C@H]21	IC50	23.5

A = C[C@@H]1O[C@@H](O[C@@H]2[C@@H](O)[C@H](OCCc3ccc(O)c(O)c3)O[C@H](CO)[C@H]2OC(=O)/C=C/c2ccc(O)c(O)c2)[C@H](O)[C@H](O)[C@H]1O [ACETOSIDE]
B = COc1ccc(/C=C/C(=O)OC[C@H]2O[C@@H](O[C@H]3OC=C[C@@]4(O)[C@@H]3[C@](C)(O)C[C@@H]4O)[C@H](O[C@@H]3O[C@H](CO)[C@@H](O)[C@H](O)[C@H]3O)[C@@H](O)[C@@H]2O)cc1
Which value of IC50 is numerically greater: that of A or that of B ? Response format: the label of the selected entry. A
